Recorded values, source ChEMBL document CHEMBL3046428.

# System: Globisporangium debaryanum
# assay remarks: Antifungal activity against Pythium debaryanum assessed as growth inhibition at 125 ug/ml by poisoned food technique
# Assay type: functional
test readout: inhibition at 125 µg/mL (%)
I only need the number, in %, no unit after it.

Past entries and their recorded results:
compound	tgt	value reported
COc1cc(C)c2c(=O)c3c(O)cc(OC)cc3oc2c1 [LICHEXANTHONE]	Globisporangium debaryanum	28.4
COc1cc(C)c(C(=O)O)c(O)c1C	Globisporangium debaryanum	61.4
C=C1C(=O)OC(CCCCCCCCCCCCC)C1C(=O)O (racemic) [(+/-)-Protolichesterinic acid]	Globisporangium debaryanum	90
CCOC(=O)c1c(C)cc(O)c(C=O)c1O [ETHYL HEMATOMMATE]	Globisporangium debaryanum	26.3
COC(=O)c1c(C)cc(O)c(C=O)c1O [METHYL HAEMATOMMATE]	Globisporangium debaryanum	47.3
COc1cc(C)c(C(=O)Oc2cc(C)c(C(=O)O)c(O)c2C)c(O)c1C=O [BAEOMYCESIC ACID]	Globisporangium debaryanum	38.2

Data request: Tell me inhibition at 125 µg/mL reported for COC(=O)c1c(C)cc(OC(=O)c2c(C)cc(O)c(C=O)c2O)c(C)c1O [ATRANORIN]
Data returned: 78

Data request: Tell me inhibition at 125 µg/mL reported for COC(=O)c1c(C)cc(O)c(C)c1O [ATRARIC ACID]
Data returned: 72.3

Data request: Tell me inhibition at 125 µg/mL reported for Cc1cc(O)c(C=O)c2c1C(=O)Oc1c(CO)c(O)c3c(c1O2)C(O)OC3=O (stereo unspecified) [SLAZINIC ACID]
Data returned: 28.1

Data request: Tell me inhibition at 125 µg/mL reported for CCOC(=O)c1c(C)cc(O)cc1O [ORSELLINIC ACID, ETHYL ESTER]
Data returned: 61.2

Data request: Tell me inhibition at 125 µg/mL reported for CC(=O)C1=C(O)C=C2Oc3c(C)c(O)c(C(C)=O)c(O)c3C2(C)C1=O (racemic) [(+/-)-ISOUSNIC ACID]
Data returned: 66.2
